Experiment: Solubility stated in words
Assay type: physicochemical

| compound | solubility (in words) |
| --- | --- |
| N=C(N)SCCCS(=O)(=O)O | less soluble |
| CC(CCSC(=N)N)S(=O)(=O)O (stereo not shown) | less soluble |
| N=C(N)SCCCCS(=O)(=O)O | less soluble |
